tested on: BEL-7402 cells; assay: Inhibition of liver cancer cell BEL-7402 in vitro by SRB; format: cell-based; conditions: Homo sapiens, 10^−6M, 72 hours, read-out: The inhibition percentage of cell proliferation by the compounds with a concentration of 10^−6M, BEL-7402 cells
Quantity Measured: inhibition at 1 µM (%)

{"Compound": "CC(C)=CCc1c(O)cc(O)c2c(=O)c(O)c(-c3ccc(C(F)(F)F)cc3)oc12 [Compound 1]", "Quantity Measured": "inhibition at 1 µM", "Unit Annotation": "%", "Result Value": 23.7}
{"Compound": "CC(C)=CCc1c(O)cc(O)c2c(=O)c(O)c(-c3ccc(F)cc3)oc12 [Compound 2]", "Quantity Measured": "inhibition at 1 µM", "Unit Annotation": "%", "Result Value": 21.8}
{"Compound": "CC(C)=CCc1c(O)cc(O)c2c(=O)c(O)c(-c3ccc(Cl)c(C(F)(F)F)c3)oc12 [Compound 7]", "Quantity Measured": "inhibition at 1 µM", "Unit Annotation": "%", "Result Value": 19.8}
{"Compound": "COc1c(-c2ccc(C(F)(F)F)cc2)oc2c(CC=C(C)C)c(O)cc(O)c2c1=O [Compound 9]", "Quantity Measured": "inhibition at 1 µM", "Unit Annotation": "%", "Result Value": 11.7}
{"Compound": "COc1c(-c2ccc(F)c(F)c2)oc2c(CC=C(C)C)c(O)cc(O)c2c1=O [Compound 10]", "Quantity Measured": "inhibition at 1 µM", "Unit Annotation": "%", "Result Value": 17.4}
{"Compound": "CC(C)=CCc1c(O)cc(O)c2c(=O)c(O)c(-c3ccc(OC(F)(F)F)cc3)oc12 [Compound 5]", "Quantity Measured": "inhibition at 1 µM", "Unit Annotation": "%", "Result Value": 15.6}
